Header: Ki / Tryptase beta-1 (Homo sapiens, UniProt Q15661) / multiple publications
All answers are understood in nM, so give the number only.

For the molecule shown here, CC(=O)N1C[C@H](O)C[C@H]1C(=O)N[C@@H](CCCNC(=N)N)C(=O)c1nc2ccccc2s1 (stereo in doubt; (2R) 6) , give the reported Ki.
380

Next up: COC(=O)C(Cc1cccc(CN)c1)NC(=O)CCCNC(=O)C[C@@H]1NC(=O)[C@@H](CC(=O)NCCCC(=O)NC(Cc2cccc(CN)c2)C(=O)OC)NC1=O (stereo partly specified)
350

One more molecule: `NCCCC[C@H](NC(=O)OCc1ccccc1)C(=O)c1noc(Cc2ccc(C(=O)N3CCN(Cc4ccccc4F)CC3)cc2)n1`
140

Further, for `N=C(N)Nc1ccc(CNC(=O)CCNC(=O)OCc2ccc(COC(=O)NCCC(=O)NCc3ccc(NC(=N)N)cc3)cc2)cc1` ?
90

Now give it for `Cn1cc(C(=O)N2CCC(c3cccc(CN)c3)CC2)c2ccccc21` too.
155

Proceed to `CC(C)n1cc(C(=O)N2CCC(c3cccc(CN)c3)CC2)c2ccccc21`
310

What would you report for `NCCCC[C@H](NC(=O)c1ccc(F)cc1)C(=O)c1noc(Cc2ccc(C(=O)NCCc3cccc(Cl)c3)cc2)n1` ?
1.8

Follow-up entry: `CC(C)Cn1cc(C(=O)N2CCC(c3cccc(CN)c3)CC2)c2ccccc21`
116

Item: `N=C(N)Nc1ccc(CNC(=O)N2CCN(C(=O)O[C@H]3CCC[C@@H](OC(=O)N4CCN(C(=O)NCc5ccccc5)CC4)CCC3)CC2)cc1`
15000

For `Cl.NCCCC[C@H](NC(=O)c1ccco1)C(=O)c1noc(Cc2ccc(OCCc3ccc(Cl)c(Cl)c3)cc2)n1` then?
2.3

Okay, and `NCCCC[C@H](NC(=O)c1ccc2c(c1)OCO2)C(=O)c1noc(Cc2ccc(C(=O)NCCc3cccc(Cl)c3)cc2)n1` ?
2.1

Also check `N=C(N)Nc1ccc(CNC(=O)CCC(=O)NCc2ccc(CNC(=O)CCC(=O)NCc3ccc(NC(=N)N)cc3)cc2)cc1`
40

# repeat for `NCCCC[C@H](NC(=O)OCc1ccccc1)C(=O)c1noc(Cc2ccc(C(=O)NCCc3cccc(C(F)(F)F)c3)cc2)n1`
8.2

Likewise for `Cl.NCCCC[C@H](NC(=O)c1cccc(F)c1)C(=O)c1noc(Cc2ccc(OCCc3ccc(Cl)c(Cl)c3)cc2)n1` ?
5.8

Field entry: `Cl.NCCCC[C@H](NC(=O)N1CCCCC1)C(=O)c1noc(Cc2ccc(OCCc3ccc(Cl)c(Cl)c3)cc2)n1`
9.2

What about `C[C@H](NC(=O)OCc1ccc(COC(=O)N[C@@H](C)C(=O)NCc2ccc(CN)cc2)cc1)C(=O)NCc1ccc(CN)cc1` ?
366

Here is the next molecule: `NCCCC[C@H](NC(=O)c1cc(F)cc(F)c1)C(=O)c1noc(Cc2ccc(C(=O)NCCc3cccc(Cl)c3)cc2)n1`
1.5

Another molecule to look at: COC(=O)C(Cc1cccc(CN)c1)NC(=O)CNC(=O)C[C@@H]1NC(=O)[C@@H](CC(=O)NCC(=O)NC(Cc2cccc(CN)c2)C(=O)OC)NC1=O (stereo partly specified)
18

And `CC(C)OC(=O)N[C@@H](CCCCN)C(=O)c1noc(Cc2ccc(OCCc3ccc(Cl)c(Cl)c3)cc2)n1.Cl` ?
5

And `CN(CC(=O)NCc1ccc(CN)cc1)C(=O)OCc1ccc(COC(=O)N(C)CC(=O)NCc2ccc(CN)cc2)cc1` ?
5

Could you do the same for `Cl.NCCCC[C@H](NC(=O)N1CCOCC1)C(=O)c1noc(Cc2ccc(OCCc3ccc(Cl)c(Cl)c3)cc2)n1` , please?
5.7

`CC(C)(C)C(=O)N[C@@H](CCCCN)C(=O)c1noc(Cc2ccc(OCCc3ccc(Cl)c(Cl)c3)cc2)n1.Cl` , same question.
3.75

Now try `NCCCC[C@H](NC(=O)OCc1ccccc1)C(=O)c1noc(Cc2ccc(C(=O)NCCc3ccc(Cl)c(Cl)c3)cc2)n1` .
16

Also COC(=O)C(Cc1cccc(CN)c1)NC(=O)CCC1NC(=O)[C@@H](CCC(=O)NC(Cc2cccc(CN)c2)C(=O)OC)NC1=O (stereo partly specified) ?
2400

Please give the result for `N=C(N)Nc1ccc(CNC(=O)CC(=O)NCc2ccc(CNC(=O)CC(=O)NCc3ccc(NC(=N)N)cc3)cc2)cc1` too.
680

Request: `CCOC(=O)N[C@@H](CCCCN)C(=O)c1noc(Cc2ccc(OCCc3ccc(Cl)c(Cl)c3)cc2)n1.Cl`
4.7

Next molecule up: `NCCCC[C@H](NC(=O)OCc1ccccc1)C(=O)c1noc(CN2CCN(C(=O)CCc3ccccc3)CC2)n1`
230

Query `CN(C)C(=O)N[C@@H](CCCCN)C(=O)c1noc(Cc2ccc(OCCc3ccc(Cl)c(Cl)c3)cc2)n1.Cl` next
9.6

Param item: `CCOC(=O)c1cc(C(=O)N2CCC(c3cc(CN)ccc3F)CC2)cc(-c2nc(-c3cccs3)no2)c1`
59

Now consider `COCCn1cc(C(=O)N2CCC(c3cccc(CN)c3)CC2)c2ccccc21` and answer again.
57

* * *

Compiled literature pKi, tested on Tryptase beta-1 (Homo sapiens, UniProt Q15661).
Sequence (Q15661 whole entry): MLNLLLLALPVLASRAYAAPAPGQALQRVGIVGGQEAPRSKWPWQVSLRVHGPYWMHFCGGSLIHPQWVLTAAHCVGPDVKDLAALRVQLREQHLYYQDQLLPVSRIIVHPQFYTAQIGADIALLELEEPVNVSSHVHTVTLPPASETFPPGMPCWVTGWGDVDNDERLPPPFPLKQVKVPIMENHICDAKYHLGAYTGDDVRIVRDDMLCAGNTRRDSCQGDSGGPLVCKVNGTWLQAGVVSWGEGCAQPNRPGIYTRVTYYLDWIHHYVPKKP
# pKi = -log10(concentration in molar units)

Look at this compound and give its reported pKi. `Cl.NCCCC[C@H](NC(=O)c1ccc(F)cc1F)C(=O)c1noc(Cc2ccc(OCCc3ccc(Cl)c(Cl)c3)cc2)n1`
8.49

Try this compound next: `COCCOC(=O)N[C@@H](CCCCN)C(=O)c1noc(Cc2ccc(OCCc3ccc(Cl)c(Cl)c3)cc2)n1.Cl`
8.30

Item: `C[C@@H](NC(=O)OCc1ccc(COC(=O)N[C@H](C)C(=O)NCc2ccc(CN)cc2)cc1)C(=O)NCc1ccc(CN)cc1`
7.51

Now try `NCc1cccc(C2CCN(C(=O)c3cc(C(N)=O)cc(-c4nc(-c5cccs5)no4)c3)CC2)c1` .
8.82

Also, `NCc1ccc(CNC(=O)CCCC(=O)NCc2ccc(CNC(=O)CCCC(=O)NCc3ccc(CN)cc3)cc2)cc1` please.
8.05

Repeat for the following compound: CC(=O)N1C[C@H](O)C[C@H]1C(=O)NC(CCCN)C(=O)c1nc2ccccc2s1 (some centres not stated)
7.05

Also N=C(N)NCCC[C@H](NC(=O)c1ccc2ccccc2c1O)C(=O)N1CCCC1C(N)=O (some centres not stated) ?
6.48

Please answer likewise for `Cc1ccc(CNC(=O)c2ccc(Cc3nc(C(=O)[C@H](CCCCN)NC(=O)OCc4ccccc4)no3)cc2)cc1C`
7.41

What do you have for `NC(N)=Nc1ccc(CNC(=O)NCC(=O)O[C@H]2CCC[C@@H](OC(=O)CNC(=O)NCc3ccc(N=C(N)N)cc3)CCC2)cc1` ?
8.70

Do the same for `Cc1cc(C(=O)N[C@@H](CCCCN)C(=O)c2noc(Cc3ccc(OCCc4ccc(Cl)c(Cl)c4)cc3)n2)c(C)o1.Cl` please
7.34

Next: `Cl.NCCCC[C@H](NC(=O)c1ccc(Cl)cc1)C(=O)c1noc(Cc2ccc(OCCc3ccc(Cl)c(Cl)c3)cc2)n1`
8.18

Likewise for `NCCCC[C@H](NC(=O)OCc1ccccc1)C(=O)c1noc(Cc2ccc(C(=O)NCc3cccc4ccccc34)cc2)n1` ?
7.89
